Would you kindly list EC50 for each of these molecules?
- experimental-system: GLP-1 Receptor (GLP1R) (Homo sapiens, UniProt P43220)
- Construct: host or cells: HEK293/GLP1R/CRE-LUC
- Sequence (P43220 24-463): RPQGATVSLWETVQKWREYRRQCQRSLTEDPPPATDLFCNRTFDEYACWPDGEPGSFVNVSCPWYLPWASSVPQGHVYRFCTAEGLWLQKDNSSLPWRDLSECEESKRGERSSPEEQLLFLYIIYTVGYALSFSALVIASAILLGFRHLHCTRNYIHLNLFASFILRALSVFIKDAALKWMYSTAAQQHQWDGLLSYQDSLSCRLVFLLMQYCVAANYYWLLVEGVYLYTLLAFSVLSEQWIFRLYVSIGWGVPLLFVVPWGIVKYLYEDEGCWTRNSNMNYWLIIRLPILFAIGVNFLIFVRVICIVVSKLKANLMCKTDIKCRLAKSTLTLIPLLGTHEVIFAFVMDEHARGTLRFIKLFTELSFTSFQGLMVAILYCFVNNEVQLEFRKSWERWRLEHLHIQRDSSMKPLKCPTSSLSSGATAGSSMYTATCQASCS
- test-name: GLP-1R agonist cAMP stimulation assay (Method 3)
- Assay type: cell-based
- conditions-used: HEK293/GLP1R/CRE-LUC cells (HDB), Method 3, 30 min incubation; read-out: GLP1R cAMP Stimulation DR: EC50 (nM) [Species: Human, Assay Cell Line: HDB]

Dear colleague, could you send me EC50 for each of the items below? Thanks.
1. CCP(=O)(CC)c1ccc(-n2ccn(-c3c4c(nn3-c3cc(C)c(F)c(C)c3)CCN(C(=O)c3cc5cc(C6CCOCC6)ccc5n3[C@@]3(c5noc(=O)[nH]5)C[C@@H]3C)[C@H]4C)c2=O)cc1NC(=O)C1CC1 [Compound 115a]
2. Cc1cc(-n2nc3c(c2-n2ccn(-c4ccc(P(C)(C)=O)cc4F)c2=O)[C@H](C)N(C(=O)c2cc4cc(C5CCOCC5)ccc4n2[C@@]2(c4noc(=O)[nH]4)C[C@@H]2C)CC3)cc(C)c1F [Compound 122a]
3. Cc1cc(-n2nc3c(c2-n2ccn(-c4ccc(P(C)(C)=O)c(N)c4)c2=O)[C@H](C)N(C(=O)c2cc4cc(C5CCOCC5)ccc4n2[C@@]2(c4noc(=O)[nH]4)C[C@@H]2C)CC3)cc(C)c1F [Compound 111a]
4. CCP(=O)(CC)c1c(F)cc(-n2ccn(-c3c4c(nn3-c3cc(C)c(F)c(C)c3)CCN(C(=O)c3cc5cc(C6CCOCC6)ccc5n3[C@@]3(c5noc(=O)[nH]5)C[C@@H]3C)[C@H]4C)c2=O)cc1NC [Compound 143a]

Result:
1. 0.2 to 0.5 nM
2. < 0.1 nM
3. < 0.1 nM
4. 0.1 to 0.2 nM

###

- experimental-system: GLP-1 Receptor (GLP1R) (Homo sapiens)
- Construct: host or cells: HEK293/GLP1R/CRE-LUC
- test-name: GLP-1R agonist cAMP stimulation assay (Method 3)
- Format: cell-based
- conditions-used: HEK293/GLP1R/CRE-LUC cells (HDB), Method 3, 30 min incubation; read-out: GLP1R cAMP Stimulation DR: EC50 (nM) [Species: Human, Assay Cell Line: HDB]
property-name: EC50

compound="CCP(=O)(CC)c1ccc(-n2ccn(-c3c4c(nn3-c3cc(C)c(F)c(C)c3)CCN(C(=O)c3cc5cc(C6CCOCC6)ccc5n3[C@@]3(c5noc(=O)[nH]5)C[C@@H]3C)[C@H]4C)c2=O)cc1 [Compound 129a]" value_observed="< 0.1 nM"
compound="CCP(=O)(CC)c1cc(F)c(-n2ccn(-c3c4c(nn3-c3cc(C)c(F)c(C)c3)CCN(C(=O)c3cc5cc(C6CCOCC6)ccc5n3[C@@]3(c5noc(=O)[nH]5)C[C@@H]3C)[C@H]4C)c2=O)cc1NC [Compound 144a]" value_observed="< 0.1 nM"
compound="CCP(=O)(CC)c1ccc(-n2ccn(-c3c4c(nn3-c3cc(C)c(F)c(C)c3)CCN(C(=O)c3cc5cc(C6CCOCC6)ccc5n3[C@@]3(c5noc(=O)[nH]5)C[C@@H]3C)[C@H]4C)c2=O)c(F)c1NC [Compound 145a]" value_observed="< 0.1 nM"

Dear colleague, could you send me EC50 for each of the items below? Thanks.
1. Cc1cc(-n2nc3c(c2-n2ccn(-c4ccc(P5(=O)CCN(C)CC5)cc4)c2=O)[C@H](C)N(C(=O)c2cc4cc(C5CCOCC5)ccc4n2[C@@]2(c4noc(=O)[nH]4)C[C@@H]2C)CC3)cc(C)c1F [Compound 126a]
2. CNc1cc(-n2ccn(-c3c4c(nn3-c3cc(C)c(F)c(C)c3)CCN(C(=O)c3cc5cc(C6CCOCC6)ccc5n3[C@@]3(c5noc(=O)[nH]5)C[C@@H]3C)[C@H]4C)c2=O)ccc1P(C)(C)=O [Compound 106a]
3. Cc1cc(-n2nc3c(c2-n2ccn(-c4ccc(P(C)(C)=O)cc4)c2=O)[C@H](C)N(C(=O)c2cc4cc(C5CCOCC5)ccc4n2[C@@]2(c4noc(=O)[nH]4)C[C@@H]2C)CC3)cc(C)c1F [Compound 101a]
4. Cc1cc(-n2nc3c(c2-n2ccn(-c4ccc(P(C)(C)=O)nc4)c2=O)[C@H](C)N(C(=O)c2cc4cc(C5CCOCC5)ccc4n2[C@@]2(c4noc(=O)[nH]4)C[C@@H]2C)CC3)cc(C)c1F [Compound 105a]
5. Cc1cc(-n2nc3c(c2-n2ccn(-c4cc(P(C)(C)=O)c5c(cnn5C)c4)c2=O)[C@H](C)N(C(=O)c2cc4cc(C5CCOCC5)ccc4n2[C@@]2(c4noc(=O)[nH]4)C[C@@H]2C)CC3)cc(C)c1F [Compound 112a]
6. CCP(=O)(CC)c1ccc(-n2ccn(-c3c4c(nn3-c3cc(C)c(F)c(C)c3)CCN(C(=O)c3cc5cc([C@@H]6CCOC(C)(C)C6)ccc5n3[C@@]3(c5noc(=O)[nH]5)C[C@@H]3C)[C@H]4C)c2=O)cc1NC [Compound 146a]

Result:
0.1 to 0.2 nM
< 0.1 nM
0.1 to 0.2 nM
0.1 to 0.2 nM
0.5 to 5 nM
< 0.1 nM

###

Would you kindly list EC50 for each of these molecules?
- experimental-system: GLP-1 Receptor (GLP1R) (Homo sapiens, UniProt P43220)
- Construct: host or cells: HEK293/GLP1R/CRE-LUC
- test-name: GLP-1R agonist cAMP stimulation assay (Method 3)
- Format: cell-based
- conditions-used: HEK293/GLP1R/CRE-LUC cells (HDB), Method 3, 30 min incubation; read-out: GLP1R cAMP Stimulation DR: EC50 (nM) [Species: Human, Assay Cell Line: HDB]

molecule="Cc1cc(-n2ccn(-c3c4c(nn3-c3cc(C)c(F)c(C)c3)CCN(C(=O)c3cc5cc(C6CCOCC6)ccc5n3[C@@]3(c5noc(=O)[nH]5)C[C@@H]3C)[C@H]4C)c2=O)ccc1P(C)(C)=O [Compound 124a]" value_observed="< 0.1 nM"

Next, consider the following molecule.
Request: # input molecule: CCP(=O)(CC)c1ccc(-n2ccn(-c3c4c(nn3-c3cc(C)c(F)c(C)c3)CCN(C(=O)c3cc5cc(C6CCOCC6)ccc5n3[C@@]3(c5noc(=O)[nH]5)C[C@@H]3C)[C@H]4C)c2=O)cc1N1CCOCC1 [Compound 114a] ; wanted: its EC50
Result: 0.2 to 0.5 nM

###

- experimental-system: GLP-1 Receptor (GLP1R) (Homo sapiens, UniProt P43220)
- Construct: host or cells: HEK293/GLP1R/CRE-LUC
- test-name: GLP-1R agonist cAMP stimulation assay (Method 3)
- Assay type: cell-based
- conditions-used: HEK293/GLP1R/CRE-LUC cells (HDB), Method 3, 30 min incubation; read-out: GLP1R cAMP Stimulation DR: pEC50 (M) [Species: Human, Assay Cell Line: HDB] (converted)
Would you kindly list EC50 for each of these compounds?

compound="Cc1cc(-n2nc3c(c2-n2ccn(-c4ccc(P5(=O)CCN(C)CC5)cc4)c2=O)[C@H](C)N(C(=O)c2cc4cc(C5CCOCC5)ccc4n2[C@@]2(c4noc(=O)[nH]4)C[C@@H]2C)CC3)cc(C)c1F [Compound 126a]" property_name=EC50 value_observed="1e-10 to 1e-09 M"
compound="Cc1cc(-n2nc3c(c2-n2ccn(-c4cc(P(C)(C)=O)c5c(cnn5C)c4)c2=O)[C@H](C)N(C(=O)c2cc4cc(C5CCOCC5)ccc4n2[C@@]2(c4noc(=O)[nH]4)C[C@@H]2C)CC3)cc(C)c1F [Compound 112a]" property_name=EC50 value_observed="1e-10 to 1e-09 M"
compound="Cc1cc(-n2ccn(-c3c4c(nn3-c3cc(C)c(F)c(C)c3)CCN(C(=O)c3cc5cc(C6CCOCC6)ccc5n3[C@@]3(c5noc(=O)[nH]5)C[C@@H]3C)[C@H]4C)c2=O)ccc1P(C)(C)=O [Compound 124a]" property_name=EC50 value_observed="≤ 1e-10 M"
compound="Cc1cc(-n2nc3c(c2-n2ccn(-c4ccc(P(C)(C)=O)c(N)c4)c2=O)[C@H](C)N(C(=O)c2cc4cc(C5CCOCC5)ccc4n2[C@@]2(c4noc(=O)[nH]4)C[C@@H]2C)CC3)cc(C)c1F [Compound 111a]" property_name=EC50 value_observed="≤ 1e-10 M"
compound="Cc1cc(-n2nc3c(c2-n2ccn(-c4ccc(P(=O)(C(C)C)C(C)C)cc4)c2=O)[C@H](C)N(C(=O)c2cc4cc(C5CCOCC5)ccc4n2[C@@]2(c4noc(=O)[nH]4)C[C@@H]2C)CC3)cc(C)c1F [Compound 128a]" property_name=EC50 value_observed="≤ 1e-10 M"

Dear colleague, could you send me EC50 for each of the items below? Thanks.
1. CCP(=O)(CC)c1ccc(-n2ccn(-c3c4c(nn3-c3cc(C)c(F)c(C)c3)CCN(C(=O)c3cc5cc(C6CCC(F)(F)CC6)ccc5n3[C@@]3(c5noc(=O)[nH]5)C[C@@H]3C)[C@H]4C)c2=O)cc1NC [Compound 133a]
2. CCP(=O)(CC)c1ccc(-n2ccn(-c3c4c(nn3-c3cc(C)c(F)c(C)c3)CCN(C(=O)c3cc5cc(C6CCOCC6)ccc5n3[C@@]3(c5noc(=O)[nH]5)C[C@@H]3C)[C@H]4C)c2=O)cc1OC [Compound 118a]

Result:
1. 1e-10 to 1e-09 M
2. ≤ 1e-10 M

Dear colleague, could you send me EC50 for each of the items below? Thanks.
1. CNc1cc(-n2ccn(-c3c4c(nn3-c3cc(C)c(F)c(C)c3)CCN(C(=O)c3cc5cc(C6CCOCC6)ccc5n3[C@@]3(c5noc(=O)[nH]5)C[C@@H]3C)[C@H]4C)c2=O)ccc1P(=O)(C(C)C)C(C)C [Compound 141a]
2. CCP(=O)(CC)c1c(C)cc(-n2ccn(-c3c4c(nn3-c3cc(C)c(F)c(C)c3)CCN(C(=O)c3cc5cc(C6CCOCC6)ccc5n3[C@@]3(c5noc(=O)[nH]5)C[C@@H]3C)[C@H]4C)c2=O)cc1NC [Compound 140a]
3. CCP(=O)(CC)c1ccc(-n2ccn(-c3c4c(nn3-c3cc(C)c(F)c(C)c3)CCN(C(=O)c3cc5cc(C6CCOCC6)ccc5n3[C@@]3(c5noc(=O)[nH]5)C[C@@H]3C)[C@H]4C)c2=O)cc1NC [Compound 121a]
4. CCP(=O)(CC)c1ccc(-n2ccn(-c3c4c(nn3-c3cc(C)c(F)c(C)c3)CCN(C(=O)c3cc5cc(C6CCOCC6)ccc5n3[C@@]3(c5noc(=O)[nH]5)C[C@@H]3C)[C@H]4C)c2=O)cc1N1CCOCC1 [Compound 114a]
5. CCP(=O)(CC)c1ccc(-n2ccn(-c3c4c(nn3-c3cc(C)c(F)c(C)c3)CCN(C(=O)c3cc5cc(C6CCOCC6)ccc5n3[C@@]3(c5noc(=O)[nH]5)C[C@@H]3C)[C@H]4C)c2=O)cc1NC(C)C [Compound 119a]

Result:
≤ 1e-10 M
1e-10 to 1e-09 M
≤ 1e-10 M
1e-10 to 1e-09 M
1e-10 to 1e-09 M

Dear colleague, could you send me EC50 for each of the items below? Thanks.
1. Cc1cc(-n2nc3c(c2-n2ccn(-c4cccc(P(C)(C)=O)c4)c2=O)[C@H](C)N(C(=O)c2cc4cc(C5CCOCC5)ccc4n2[C@@]2(c4noc(=O)[nH]4)C[C@@H]2C)CC3)cc(C)c1F [Compound 109a]
2. CCP(=O)(CC)c1ccc(-n2ccn(-c3c4c(nn3-c3cc(C)c(F)c(C)c3)CCN(C(=O)c3cc5cc([C@H]6CCOC(C)(C)C6)ccc5n3[C@@]3(c5noc(=O)[nH]5)C[C@@H]3C)[C@H]4C)c2=O)cc1NC [Compound 146b]
3. CCP(=O)(CC)c1ncc(-n2ccn(-c3c4c(nn3-c3cc(C)c(F)c(C)c3)CCN(C(=O)c3cc5cc(C6CCOCC6)ccc5n3[C@@]3(c5noc(=O)[nH]5)C[C@@H]3C)[C@H]4C)c2=O)cc1NC [Compound 139a]
4. CNc1cc(-n2ccn(-c3c4c(nn3-c3cc(C)c(F)c(C)c3)CCN(C(=O)c3cc5cc(C6CCOCC6)ccc5n3[C@@]3(c5noc(=O)[nH]5)C[C@@H]3C)[C@H]4C)c2=O)ccc1P(=O)(C1CC1)C1CC1 [Compound 132a]

Result:
1: 1e-10 to 1e-09 M; 2: ≤ 1e-10 M; 3: ≤ 1e-10 M; 4: 1e-10 to 1e-09 M
